tested on: KRAS PDC multicell spheroid viability; assay: Anticancer human tumor 825966-067-R-J1-PDC patient-derived colon carcinoma cell line growth inhibition [KRAS2]; conditions: second compound 3.16 µM; first compound 10 µM; hits give low values
parameter measured: viability, T/C (%)
Report only the number, with the unit % understood.

Worked cases, viability, T/C given:
- compound: "CC1(C)CCC(CN2CCN(c3ccc(C(=O)NS(=O)(=O)c4ccc(NCC5CCOCC5)c([N+](=O)[O-])c4)c(Oc4cnc5[nH]ccc5c4)c3)CC2)=C(c2ccc(Cl)cc2)C1 + CC1OCC2(CCN(c3cnc(Sc4ccnc(N)c4Cl)c(N)n3)CC2)C1N"
  unit abbrev: "%"
  viability, T/C: 4.06
- compound: "CC1OCC2(CCN(c3cnc(Sc4ccnc(N)c4Cl)c(N)n3)CC2)C1N (centres undefined) + C=CC(=O)N1CCN(c2nc(OCC3CCCN3C)nc3c2CCN(c2cccc4cccc(C)c24)C3)CC1CC#N"
  unit abbrev: "%"
  viability, T/C: 5.73
- compound: "COC(=O)c1ccc2c(C(=Nc3ccc(N(C)C(=O)CN4CCN(C)CC4)cc3)c3ccccc3)c(O)[nH]c2c1 + C=CC(=O)N1CCN(c2nc(=O)n(-c3c(C)ccnc3C(C)C)c3nc(-c4c(O)cccc4F)c(F)cc23)C(C)C1"
  unit abbrev: "%"
  viability, T/C: 0.13

Tell us which viability, T/C value is on record for CC(C)NCC(C(=O)N1CCN(c2ncnc3c2C(C)CC3O)CC1)c1ccc(Cl)cc1 (centres undefined) + CNCc1ccccc1-c1csc(C(C)Nc2nc(C)nc3cc(OC)c(OC)cc23)c1
1.98

Tell us which viability, T/C value is on record for CCNC(=O)CC1N=C(c2ccc(Cl)cc2)c2cc(OC)ccc2-n2c(C)nnc21 (centres undefined) + C=CC(=O)N1CCN(c2nc(=O)n(-c3c(C)ccnc3C(C)C)c3nc(-c4c(O)cccc4F)c(F)cc23)C(C)C1
61.5

----------
system: KRAS PDC multicell spheroid viability; assay: Anticancer human tumor 825966-067-R-J1-PDC cell line growth inhibition [KRAS2]; conditions: second compound 10 µM; first compound 0.316 µM; active = viability on the fitted dose curve at most 10% of control; inactive = the rest;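 further: spheroids exposed to compounds for 7 days; 100% = DMSO vehicle control viability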
Please answer using one outcome listed in active, inactive

- molecule: "Cn1nccc1Nc1nccc(-c2cc3c(s2)C(C)(C)N(CCN2CCOCC2)C3=O)n1 + CNCc1ccccc1-c1csc(C(C)Nc2nc(C)nc3cc(OC)c(OC)cc23)c1"
  group label: "active"
- molecule: "COC(=O)c1ccc2c(C(=Nc3ccc(N(C)C(=O)CN4CCN(C)CC4)cc3)c3ccccc3)c(O)[nH]c2c1 + CNCc1ccccc1-c1csc(C(C)Nc2nc(C)nc3cc(OC)c(OC)cc23)c1"
  group label: "active"
- molecule: "CC(=O)OC12COC1CC(O)C1(C)C(=O)C(O)C3=C(C)C(OC(=O)C(O)C(NC(=O)OC(C)(C)C)c4ccccc4)CC(O)(C(OC(=O)c4ccccc4)C21)C3(C)C (centres undefined) + CC1OCC2(CCN(c3cnc(Sc4ccnc(N)c4Cl)c(N)n3)CC2)C1N"
  group label: "active"
- molecule: "COc1cc(Nc2ncc3c(n2)-c2ccc(Cl)cc2C(c2c(F)cccc2OC)=NC3)ccc1C(=O)O + CC1OCC2(CCN(c3cnc(Sc4ccnc(N)c4Cl)c(N)n3)CC2)C1N"
  group label: "inactive"
- molecule: "CC1(C)CCC(CN2CCN(c3ccc(C(=O)NS(=O)(=O)c4ccc(NCC5CCOCC5)c([N+](=O)[O-])c4)c(Oc4cnc5[nH]ccc5c4)c3)CC2)=C(c2ccc(Cl)cc2)C1 + COc1cc2nc(C)nc(NC(C)c3cc(N)cc(C(F)(F)F)c3)c2cc1OC1CCOC1"
  group label: "inactive"
- molecule: "CCNC(=O)CC1N=C(c2ccc(Cl)cc2)c2cc(OC)ccc2-n2c(C)nnc21 (centres undefined) + CC1OCC2(CCN(c3cnc(Sc4ccnc(N)c4Cl)c(N)n3)CC2)C1N"
  group label: "inactive"
- molecule: "CCNC(=O)CC1N=C(c2ccc(Cl)cc2)c2cc(OC)ccc2-n2c(C)nnc21 (centres undefined) + CNCc1ccccc1-c1csc(C(C)Nc2nc(C)nc3cc(OC)c(OC)cc23)c1"
  group label: "active"
- molecule: "COC(=O)c1ccc2c(C(=Nc3ccc(N(C)C(=O)CN4CCN(C)CC4)cc3)c3ccccc3)c(O)[nH]c2c1 + C=CC(=O)N1CCN(c2nc(=O)n(-c3c(C)ccnc3C(C)C)c3nc(-c4c(O)cccc4F)c(F)cc23)C(C)C1"
  group label: "inactive"

# outcome recorded in this test, key = CC(C)NCC(C(=O)N1CCN(c2ncnc3c2C(C)CC3O)CC1)c1ccc(Cl)cc1 (centres undefined) + CNCc1ccccc1-c1csc(C(C)Nc2nc(C)nc3cc(OC)c(OC)cc23)c1
active

Attribution: PubChem BioAssay AID1963865
